Measured Excretion amount, listed per entry for reference.
- Assay details: Fecal excretion study in rats after oral NS, SF or CNS (LC–MS/MS)
- Format: in vivo
- Test context: rat feces, oral CNS 110 mg/kg, 72 h
Unit µg implied. Number only.

Some solved entries appear below for comparison.
compound="CC(C)=CCC[C@](C)(O[C@@H]1O[C@H](CO)[C@@H](O)[C@H](O)[C@H]1O)[C@H]1CC[C@]2(C)[C@@H]1[C@H](O)C[C@@H]1[C@@]3(C)CC[C@H](O)C(C)(C)[C@@H]3[C@@H](O[C@@H]3O[C@H](CO)[C@@H](O)[C@H](O)[C@H]3O[C@@H]3O[C@@H](C)[C@H](O)[C@@H](O)[C@H]3O)C[C@]12C [ginsenoside Re]" unit_of_measure=µg readout_value=2.615
compound="CC(C)=CCC[C@](C)(O[C@@H]1O[C@H](CO)[C@@H](O)[C@H](O)[C@H]1O)[C@H]1CC[C@]2(C)[C@@H]1[C@H](O)C[C@@H]1[C@@]3(C)CC[C@H](O[C@@H]4O[C@H](CO)[C@@H](O)[C@H](O)[C@H]4O[C@@H]4O[C@H](CO)[C@@H](O)[C@H](O)[C@H]4O)C(C)(C)[C@@H]3CC[C@]12C [ginsenoside Rd]" unit_of_measure=µg readout_value=2.403
compound="CC(C)=CCC[C@](C)(O[C@@H]1O[C@H](CO)[C@@H](O)[C@H](O)[C@H]1O)[C@H]1CC[C@]2(C)[C@@H]1[C@H](O)C[C@@H]1[C@@]3(C)CC[C@H](O)C(C)(C)[C@@H]3[C@@H](O[C@@H]3O[C@H](CO)[C@@H](O)[C@H](O)[C@H]3O)C[C@]12C [ginsenoside Rg1]" unit_of_measure=µg readout_value=5.212

// next entry
Request: Record request: Excretion amount value, item CC(C)=CCC[C@](C)(O[C@@H]1O[C@H](CO[C@@H]2O[C@H](CO)[C@@H](O)[C@H](O)[C@H]2O)[C@@H](O)[C@H](O)[C@H]1O)[C@H]1CC[C@]2(C)[C@@H]1[C@H](O)C[C@@H]1[C@@]3(C)CC[C@H](O[C@@H]4O[C@H](CO)[C@@H](O)[C@H](O)[C@H]4O[C@@H]4O[C@H](CO)[C@@H](O)[C@H](O)[C@H]4O)C(C)(C)[C@@H]3CC[C@]12C [ginsenoside Rb1]
Result: 7.325

---

- Assay details: Fecal excretion study in rats after oral NS, SF or CNS (LC–MS/MS)
- Format: in vivo
- Test context: male, Sprague Dawley; rat feces, oral CNS 110 mg/kg, 48 h
Property label: concentration at 48 h (ng/mL)
Unit ng/mL implied. Number only.

Request: Record request: concentration at 48 h value, item CC(C)=CCC[C@](C)(O[C@@H]1O[C@H](CO[C@@H]2O[C@H](CO)[C@@H](O)[C@H](O)[C@H]2O)[C@@H](O)[C@H](O)[C@H]1O)[C@H]1CC[C@]2(C)[C@@H]1[C@H](O)C[C@@H]1[C@@]3(C)CC[C@H](O[C@@H]4O[C@H](CO)[C@@H](O)[C@H](O)[C@H]4O[C@@H]4O[C@H](CO)[C@@H](O)[C@H](O)[C@H]4O)C(C)(C)[C@@H]3CC[C@]12C [ginsenoside Rb1]
Result: 552

---

Measured concentration at 96 h, listed per entry for reference.
- Assay details: Fecal excretion study in rats after oral NS, SF or CNS (LC–MS/MS)
- Type: in vivo
- Test context: male, Sprague Dawley; rat feces, oral NS 60 mg/kg, 96 h
Unit ng/mL implied. Number only.

Request: Record request: concentration at 96 h value, item CC(C)=CCC[C@](C)(O[C@@H]1O[C@H](CO[C@@H]2O[C@H](CO)[C@@H](O)[C@H](O)[C@H]2O)[C@@H](O)[C@H](O)[C@H]1O)[C@H]1CC[C@]2(C)[C@@H]1[C@H](O)C[C@@H]1[C@@]3(C)CC[C@H](O[C@@H]4O[C@H](CO)[C@@H](O)[C@H](O)[C@H]4O[C@@H]4O[C@H](CO)[C@@H](O)[C@H](O)[C@H]4O)C(C)(C)[C@@H]3CC[C@]12C [ginsenoside Rb1]
Result: 19

Request: Now the same for CC(C)=CCC[C@](C)(O[C@@H]1O[C@H](CO)[C@@H](O)[C@H](O)[C@H]1O)[C@H]1CC[C@]2(C)[C@@H]1[C@H](O)C[C@@H]1[C@@]3(C)CC[C@H](O[C@@H]4O[C@H](CO)[C@@H](O)[C@H](O)[C@H]4O[C@@H]4O[C@H](CO)[C@@H](O)[C@H](O)[C@H]4O)C(C)(C)[C@@H]3CC[C@]12C [ginsenoside Rd]
Result: 17

Request: Now the same for CC(C)=CCC[C@](C)(O[C@@H]1O[C@H](CO)[C@@H](O)[C@H](O)[C@H]1O)[C@H]1CC[C@]2(C)[C@@H]1[C@H](O)C[C@@H]1[C@@]3(C)CC[C@H](O)C(C)(C)[C@@H]3[C@@H](O[C@@H]3O[C@H](CO)[C@@H](O)[C@H](O)[C@H]3O[C@@H]3O[C@@H](C)[C@H](O)[C@@H](O)[C@H]3O)C[C@]12C [ginsenoside Re]
Result: 18

---

Measured concentration at 4 h, listed per entry for reference.
- Assay details: Fecal excretion study in rats after oral NS, SF or CNS (LC–MS/MS)
- Assay type: in vivo
- Test context: male, Sprague Dawley; rat feces, oral NS 60 mg/kg, 4 h
Unit ng/mL implied. Number only.

Some solved entries appear below for comparison.
compound="CC(C)=CCC[C@](C)(O[C@@H]1O[C@H](CO)[C@@H](O)[C@H](O)[C@H]1O)[C@H]1CC[C@]2(C)[C@@H]1[C@H](O)C[C@@H]1[C@@]3(C)CC[C@H](O)C(C)(C)[C@@H]3[C@@H](O[C@@H]3O[C@H](CO)[C@@H](O)[C@H](O)[C@H]3O)C[C@]12C [ginsenoside Rg1]" unit_of_measure=ng/mL readout_value=1510
compound="CC(C)=CCC[C@](C)(O[C@@H]1O[C@H](CO)[C@@H](O)[C@H](O)[C@H]1O)[C@H]1CC[C@]2(C)[C@@H]1[C@H](O)C[C@@H]1[C@@]3(C)CC[C@H](O[C@@H]4O[C@H](CO)[C@@H](O)[C@H](O)[C@H]4O[C@@H]4O[C@H](CO)[C@@H](O)[C@H](O)[C@H]4O)C(C)(C)[C@@H]3CC[C@]12C [ginsenoside Rd]" unit_of_measure=ng/mL readout_value=752

// next entry
Request: Record request: concentration at 4 h value, item CC(C)=CCC[C@](C)(O[C@@H]1O[C@H](CO)[C@@H](O)[C@H](O)[C@H]1O)[C@H]1CC[C@]2(C)[C@@H]1[C@H](O)C[C@@H]1[C@@]3(C)CC[C@H](O)C(C)(C)[C@@H]3[C@@H](O[C@@H]3O[C@H](CO)[C@@H](O)[C@H](O)[C@H]3O[C@@H]3O[C@@H](C)[C@H](O)[C@@H](O)[C@H]3O)C[C@]12C [ginsenoside Re]
Result: 323

---

- Assay details: Urinary excretion study in rats after oral NS, SF or CNS (LC–MS/MS)
- Type: in vivo
- Test context: rat urine, oral CNS 110 mg/kg, 96 h
- Method: The animal room was set at constant temperature of 20 ± 2 °C with humidity of 50 ± 20% and 12/12 h light/dark cycle. Eighteen male rats were fasted for 12 h before starting the experiment. […] The urine volume was recorded and the dry feces were measured for each collection period. […] The accumulative excretion percentage was calculated for each analyte as follows. […]
Property label: Accumulative excretion amount (µg)
Unit µg implied. Number only.

compound="CC(C)=CCC[C@](C)(O[C@@H]1O[C@H](CO)[C@@H](O)[C@H](O)[C@H]1O)[C@H]1CC[C@]2(C)[C@@H]1[C@H](O)C[C@@H]1[C@@]3(C)CC[C@H](O)C(C)(C)[C@@H]3[C@@H](O[C@@H]3O[C@H](CO)[C@@H](O)[C@H](O)[C@H]3O)C[C@]12C [ginsenoside Rg1]" unit_of_measure=µg readout_value=8.966
compound="CC(C)=CCC[C@](C)(O[C@@H]1O[C@H](CO)[C@@H](O)[C@H](O)[C@H]1O)[C@H]1CC[C@]2(C)[C@@H]1[C@H](O)C[C@@H]1[C@@]3(C)CC[C@H](O)C(C)(C)[C@@H]3[C@@H](O[C@@H]3O[C@H](CO)[C@@H](O)[C@H](O)[C@H]3O[C@@H]3O[C@@H](C)[C@H](O)[C@@H](O)[C@H]3O)C[C@]12C [ginsenoside Re]" unit_of_measure=µg readout_value=0.468
compound="CC(C)=CCC[C@](C)(O[C@@H]1O[C@H](CO[C@@H]2O[C@H](CO)[C@@H](O)[C@H](O)[C@H]2O)[C@@H](O)[C@H](O)[C@H]1O)[C@H]1CC[C@]2(C)[C@@H]1[C@H](O)C[C@@H]1[C@@]3(C)CC[C@H](O[C@@H]4O[C@H](CO)[C@@H](O)[C@H](O)[C@H]4O[C@@H]4O[C@H](CO)[C@@H](O)[C@H](O)[C@H]4O)C(C)(C)[C@@H]3CC[C@]12C [ginsenoside Rb1]" unit_of_measure=µg readout_value=1.414

// next entry
Request: Record request: Accumulative excretion amount value, item CC(C)=CCC[C@](C)(O[C@@H]1O[C@H](CO)[C@@H](O)[C@H](O)[C@H]1O)[C@H]1CC[C@]2(C)[C@@H]1[C@H](O)C[C@@H]1[C@@]3(C)CC[C@H](O[C@@H]4O[C@H](CO)[C@@H](O)[C@H](O)[C@H]4O[C@@H]4O[C@H](CO)[C@@H](O)[C@H](O)[C@H]4O)C(C)(C)[C@@H]3CC[C@]12C [ginsenoside Rd]
Result: 0.144

Source listed as paper PMC6321168.
